procedureSummary: In vivo eye tissue levels 90 min after topical application in Tocrisolve emulsion (Examples 12-14)
Design: species or system New Zealand albino rabbits
condition: male, New Zealand albino, retina-choroid; Table 2; rabbit eye, 90 min post topical 50 μL Tocrisolve emulsion, 250 μg CBD equivalent; read-out: Concentration of CBD-Val in Retina Choroid
Counter-ions that a name gives are not always drawn.
parameterMeasured: concentration at 90 min (ng/g)
Reply numerically in ng/g, unit not repeated.

Entry C=C(C)C1CCC(C)=CC1c1c(OC(=O)[C@@H](N)C(C)C)cc(CCCCC)cc1OC(=O)[C@@H](N)C(C)C (stereo partly shown) [CBD-Val-HCl] has what concentration at 90 min? 9.1

* * *

procedureSummary: In vivo eye tissue levels 90 min after topical application in Tocrisolve emulsion (Examples 12-14)
Set-up: species or system New Zealand albino rabbits
condition: male, New Zealand albino, retina-choroid; Table 4, Set 2; rabbit, 90 min post topical 50 μL Tocrisolve emulsion, dose 250 μg; read-out: Analog Concentration, Retina Choroid
parameterMeasured: concentration at 90 min (ng/g)
Reply numerically in ng/g, unit not repeated.

Entry C=C(C)C1CCC(C)=CC1c1c(OC(=O)[C@@H](NC(=O)CCC(=O)O)C(C)C)cc(CCCCC)cc1OC(=O)[C@@H](NC(=O)CCC(=O)O)C(C)C (stereo partly shown) has what concentration at 90 min? 142

* * *

procedureSummary: Solubility of CBD and its analogs in Tocrisolve emulsion
Format: physicochemical
condition: as the substance itself
Structures can show the parent of a compound that is named as a salt.
Overview of reported Maximum solubility achieved in Tocrisolve across a group of compounds:
Reply numerically in % w/v, unit not repeated.

// below: answered compounds
C=C(C)C1CCC(C)=CC1c1c(O)cc(CCCCC)cc1OC(=O)[C@@H](NC(=O)CCC(=O)O)C(C)C (stereo partly shown) [CBD-Mono-VHS, CBD-Mono-Valinate-Mono-Hemisuccinate]: 1.18
C=C(C)C1CCC(C)=CC1c1c(OC(=O)CCC(=O)O)cc(CCCCC)cc1OC(=O)CCC(=O)O (stereo not shown) [CBD-HS, CBD-Di-Hemisuccinate]: 1.12
C=C(C)[C@@H]1CCC(C)=C[C@H]1c1c(O)cc(CCCCC)cc1O: 1.19

Now look at this one.
Entry C=C(C)C1CCC(C)=CC1c1c(OC(=O)[C@@H](N)C(C)C)cc(CCCCC)cc1OC(=O)[C@@H](N)C(C)C (stereo partly shown) [CBD-Val-HCl] has what Maximum solubility achieved in Tocrisolve? 2.04

* * *

procedureSummary: In vivo eye tissue levels 90 min after topical application in Tocrisolve emulsion (Examples 12-14)
Design: species or system New Zealand albino rabbits
condition: rabbit eye, topical Tocrisolve emulsion
parameterMeasured: Penetration into the ocular tissues, in words (Example 14)

C=C(C)C1CCC(C)=CC1c1c(OC(=O)[C@@H](N)C(C)C)cc(CCCCC)cc1OC(=O)[C@@H](N)C(C)C (stereo partly shown) [CBD-di-Val, CBD-Di-Valinate]: not adequate
C=C(C)C1CCC(C)=CC1c1c(OC(=O)CCC(=O)O)cc(CCCCC)cc1OC(=O)CCC(=O)O (stereo not shown) [CBD-HS, CBD-Di-Hemisuccinate]: not adequate
C=C(C)C1CCC(C)=CC1c1c(OC(=O)[C@@H](NC(=O)CCC(=O)O)C(C)C)cc(CCCCC)cc1OC(=O)[C@@H](NC(=O)CCC(=O)O)C(C)C (stereo partly shown) [CBD-Val-HS, CBD-Di-Valinate-Di-Hemisuccinate]: not adequate
